Data provenance is patent US20090118331A1.

# ASSAY OVERVIEW: in vivo
# ASSAY CONTEXT: male, rat, in vivo, iv, 2 mg/kg
# Method: Here, serial doses of lobeline were administered to male and female rats intravenously, subcutaneously or orally, and the pharmacokinetic profiles of the parent lobeline and its epimer were monitored in plasma.
QUANTITY MEASURED: clearance (mL/min/kg)

MOLECULE | MEASURED RESULT
CN1[C@@H](CC(=O)c2ccccc2)CCC[C@H]1C[C@H](O)c1ccccc1 | 0.247
CN1[C@H](CC(=O)c2ccccc2)CCC[C@H]1C[C@H](O)c1ccccc1 (single isomer, unassigned; epimer 2) [Epimer] | 0.48

---

# AUC(0-t) values compiled below
# ASSAY OVERVIEW: in vivo
# ASSAY CONTEXT: female, rat, in vivo, sc, 3 mg/kg

COMPOUND | READOUT UNIT | AUC(0-t)
CN1[C@H](CC(=O)c2ccccc2)CCC[C@H]1C[C@H](O)c1ccccc1 (single isomer, unassigned; epimer 2) [Epimer] | ng·h/mL | 127
CN1[C@@H](CC(=O)c2ccccc2)CCC[C@H]1C[C@H](O)c1ccccc1 | ng·h/mL | 191
